Tested on: wheat
Experiment: Test B pre/postemergence wheat
Assay type: in vivo, Triticum aestivum
Details: Rate 62 g/ha, Postemergence; scale of 0 to 10 where 0 is no effect and 10 is complete control
Measured Attribute: Wheat plant response rating
No unit in the answer, only the number.

CC1CC1n1c(=O)on(C(=O)N(c2ccccc2)C(C)C)c1=O (stereo not drawn) [Compound 370] :: 0
CC(C)N(C(=O)n1oc(=O)n(C)c1=O)c1ccc(F)cc1F [Compound 368] :: 0
Cc1noc(C)c1-n1c(=O)on(C(=O)N(c2ccc(F)cc2F)C(C)C)c1=O [Compound 156] :: 0
CC1CC1n1c(=O)on(C(=O)N(c2ccc(F)cc2)C(C)C)c1=O (stereo not drawn) [Compound 371] :: 0
CC(C)N(C(=O)n1oc(=O)n(N2CCOCC2)c1=O)c1ccc(F)cc1 [Compound 385] :: 0
COc1cc(C)cc(C)c1-n1c(=O)on(C(=O)N(c2ccc(F)cc2)C(C)C)c1=O [Compound 222] :: 0
CC(C)N(C(=O)n1oc(=O)n(C2(C)CC2)c1=O)c1ccc(F)cc1F [Compound 363] :: 0
CC(C)N(C(=O)n1oc(=O)n(CC2CCCO2)c1=O)c1ccc(F)cc1 (stereo not drawn) [Compound 343] :: 2
CC(C)N(C(=O)n1oc(=O)n(N2C(C)CCCC2C)c1=O)c1ccc(F)cc1F (stereo not drawn) [Compound 383] :: 0
CC1CC1n1c(=O)on(C(=O)N(c2ccc(F)cc2F)C(C)C)c1=O (stereo not drawn) [Compound 372] :: 0

Dear colleague, I am looking for the recorded Wheat plant response rating of the following compound: Cc1nc(C)c(-n2c(=O)on(C(=O)N(c3ccc(F)cc3)C(C)C)c2=O)s1 [Compound 198] 0

// lookup Wheat plant response rating for C=CCn1c(=O)on(C(=O)N(c2ccc(F)cc2F)C2CC2)c1=O [Compound 127] 0
